The measurements presented in this section are drawn from ChEMBL document CHEMBL3396998.

Item-by-item account of solubility
# method-description: Aqueous solubility of the compound by HPLC method
# Format: physicochemical
# study-conditions: water
Your answer is read as µg/mL, so omit the unit and give the number.

smiles-structure: O=C(c1ccc(Cl)cc1)N1CCN(c2nc(=O)c3cc(C(F)(F)F)cc([N+](=O)[O-])c3s2)CC1
solubility / µg/mL: 5.19

smiles-structure: COc1cccc(C(=O)N2CCN(c3nc(=O)c4cc(C(F)(F)F)cc([N+](=O)[O-])c4s3)CC2)c1
solubility / µg/mL: 0.91

smiles-structure: O=C(c1ccccc1[N+](=O)[O-])N1CCN(c2nc(=O)c3cc(C(F)(F)F)cc([N+](=O)[O-])c3s2)CC1
solubility / µg/mL: 2.15

smiles-structure: O=C(c1ccc([N+](=O)[O-])cc1)N1CCN(c2nc(=O)c3cc(C(F)(F)F)cc([N+](=O)[O-])c3s2)CC1
solubility / µg/mL: 1.67

smiles-structure: O=C(C1CCCCC1)N1CCN(c2nc(=O)c3cc(C(F)(F)F)cc([N+](=O)[O-])c3s2)CC1
solubility / µg/mL: 3.24

smiles-structure: O=C(C1CCC1)N1CCN(c2nc(=O)c3cc(C(F)(F)F)cc([N+](=O)[O-])c3s2)CC1
solubility / µg/mL: 39.3

Req: May I ask what solubility has been recorded for COc1ccccc1C(=O)N1CCN(c2nc(=O)c3cc(C(F)(F)F)cc([N+](=O)[O-])c3s2)CC1 ?
Resp: 13.6

====

# method-description: Aqueous solubility of the compound by HPLC method
# Format: physicochemical
# study-conditions: water
Decision: solubility >= 6 µg/mL yields yes, all other cases yield no.

compound: CC(C)(C)c1ccc(C(=O)N2CCN(c3nc(=O)c4cc(C(F)(F)F)cc([N+](=O)[O-])c4s3)CC2)cc1
class-label: no
//
compound: O=C(c1ccc(F)cc1)N1CCN(c2nc(=O)c3cc(C(F)(F)F)cc([N+](=O)[O-])c3s2)CC1
class-label: no

Req: Form field: solubility at least 6 µg/mL? Entry: O=C(N1CCN(c2nc(=O)c3cc(C(F)(F)F)cc([N+](=O)[O-])c3s2)CC1)C12CC3CC(CC(C3)C1)C2
Resp: no

Req: Form field: solubility at least 6 µg/mL? Entry: O=C(CC1CCCCC1)N1CCN(c2nc(=O)c3cc(C(F)(F)F)cc([N+](=O)[O-])c3s2)CC1
Resp: no

Req: Form field: solubility at least 6 µg/mL? Entry: CCC(=O)N1CCN(c2nc(=O)c3cc(C(F)(F)F)cc([N+](=O)[O-])c3s2)CC1
Resp: no

====

# method-description: Aqueous solubility of the compound by HPLC method
# Type: physicochemical
# study-conditions: water
Item-by-item account of solubility
Your answer is read as µg/mL, so omit the unit and give the number.

smiles-structure: O=C(c1ccc(C(F)(F)F)cc1)N1CCN(c2nc(=O)c3cc(C(F)(F)F)cc([N+](=O)[O-])c3s2)CC1
measurement-unit: µg/mL
solubility: 7.53

Now turn to the next compound.
Req: May I ask what solubility has been recorded for O=C(c1ccccc1Cl)N1CCN(c2nc(=O)c3cc(C(F)(F)F)cc([N+](=O)[O-])c3s2)CC1 ?
Resp: 8.18

====

# method-description: Aqueous solubility of the compound by HPLC method
# Type: physicochemical
# study-conditions: water
measure: log10(solubility) (log10 of the value in µg/mL)
A difference of one corresponds to tenfold solubility; all values are log10 with solubility in µg/mL.

Examples with answers:
compound: CC(C)(C)C(=O)N1CCN(c2nc(=O)c3cc(C(F)(F)F)cc([N+](=O)[O-])c3s2)CC1
measure: log10(solubility)
result-number: 0.77

compound: CCCCC(=O)N1CCN(c2nc(=O)c3cc(C(F)(F)F)cc([N+](=O)[O-])c3s2)CC1
measure: log10(solubility)
result-number: 1.63

compound: O=C(C1CCCC1)N1CCN(c2nc(=O)c3cc(C(F)(F)F)cc([N+](=O)[O-])c3s2)CC1
measure: log10(solubility)
result-number: 0.73

compound: CCC(C)C(=O)N1CCN(c2nc(=O)c3cc(C(F)(F)F)cc([N+](=O)[O-])c3s2)CC1 (configuration not stated)
measure: log10(solubility)
result-number: 2.02

compound: CSCC(=O)N1CCN(c2nc(=O)c3cc(C(F)(F)F)cc([N+](=O)[O-])c3s2)CC1
measure: log10(solubility)
result-number: 1.18

Req: May I ask what log10(solubility) has been recorded for CC(C)CC(=O)N1CCN(c2nc(=O)c3cc(C(F)(F)F)cc([N+](=O)[O-])c3s2)CC1 ?
Resp: 1.82

====

# method-description: Aqueous solubility of the compound by HPLC method
# Format: physicochemical
# study-conditions: water
Decision: solubility >= 3 µg/mL yields 1, all other cases yield -1.

Req: Form field: solubility at least 3 µg/mL? Entry: CC(=O)N1CCN(c2nc(=O)c3cc(C(F)(F)F)cc([N+](=O)[O-])c3s2)CC1
Resp: 1

Req: Form field: solubility at least 3 µg/mL? Entry: O=C(c1ccccc1F)N1CCN(c2nc(=O)c3cc(C(F)(F)F)cc([N+](=O)[O-])c3s2)CC1
Resp: 1

Req: Form field: solubility at least 3 µg/mL? Entry: Cc1ccc(C(=O)N2CCN(c3nc(=O)c4cc(C(F)(F)F)cc([N+](=O)[O-])c4s3)CC2)cc1
Resp: 1

====

# method-description: Aqueous solubility of the compound by HPLC method
# Type: physicochemical
# study-conditions: water
Item-by-item account of solubility
Your answer is read as µg/mL, so omit the unit and give the number.

Examples with answers:
smiles-structure: O=C(c1cccc(F)c1)N1CCN(c2nc(=O)c3cc(C(F)(F)F)cc([N+](=O)[O-])c3s2)CC1
measure: solubility
measurement-unit: µg/mL
result-number: 0.2
--
smiles-structure: COc1ccc(C(=O)N2CCN(c3nc(=O)c4cc(C(F)(F)F)cc([N+](=O)[O-])c4s3)CC2)cc1
measure: solubility
measurement-unit: µg/mL
result-number: 0.22

Now turn to the next compound.
Req: May I ask what solubility has been recorded for CCCC(=O)N1CCN(c2nc(=O)c3cc(C(F)(F)F)cc([N+](=O)[O-])c3s2)CC1 ?
Resp: 2.46
